Record form. Attribute: pKd. Fill in for each entry.
Target: T1, human CD86-murine Ig fusion protein (human)
T1 construct: Bought (Ancell #509-820); also called hCD86-mIg
T1 chain: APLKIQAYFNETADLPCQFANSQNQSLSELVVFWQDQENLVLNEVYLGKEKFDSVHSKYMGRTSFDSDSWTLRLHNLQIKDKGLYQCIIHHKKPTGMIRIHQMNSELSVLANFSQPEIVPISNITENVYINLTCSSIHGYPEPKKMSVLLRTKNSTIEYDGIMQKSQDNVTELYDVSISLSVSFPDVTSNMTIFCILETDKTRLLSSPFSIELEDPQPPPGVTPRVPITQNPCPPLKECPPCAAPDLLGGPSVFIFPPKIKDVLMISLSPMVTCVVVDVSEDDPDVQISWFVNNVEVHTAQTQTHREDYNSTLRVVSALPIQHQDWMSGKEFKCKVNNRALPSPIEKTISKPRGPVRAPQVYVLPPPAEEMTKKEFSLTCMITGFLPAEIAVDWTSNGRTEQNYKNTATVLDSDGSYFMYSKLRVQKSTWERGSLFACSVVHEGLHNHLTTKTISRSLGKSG
Assay: SPR Biacore, hCD86-mIg captured
pKd: −log10 of the molar value.

binder	endpoint	value-reported
D3-23-IgG2 (Fc fusion) MHVAQPAVVLASSRGIASFVCEYESPGKANEIRVTVLRQADSQVTEVCAMTYMKGNELTFLDDPSCTGTFSGNQVNLTIQGLRAADTGLYICKVELMYPPPYYLGFGNGTQIYVIDPEPCPDSDERKCCVECPPCPAPPVAGPSVFLFPPKPKDTLMISRTPEVTCVVVDVSHEDPEVQFNWYVDGVEVHNAKTKPREEQFNSTFRVVSVLTVVHQDWLNGKEYKCKVSNKGLPAPIEKTISKTKGQPREPQVYTLPPSREEMTKNQVSLTCLVKGFYPSDIAVEWESNGQPENNYKTTPPMLDSDGSFFLYSKLTVDKSRWQQGNVFSCSVMHEALHNHYTQKSLSLSPG	pKd	9.58 to 9.88

I have 3 binders here; please give me pKd for each one.
1. D3-53-IgG2 (Fc fusion) MHVAQPAVVLASSRGIASFVCEYESPGKANEIRVTVLRQAGSQVTEVCAMTYMKGDELTFLDDPSCTGTFSGNQVNLTIQGLRAADTGLYICKVELMYPPPYYEGIGNGTQIYVIDPEPCPDSDERKCCVECPPCPAPPVAGPSVFLFPPKPKDTLMISRTPEVTCVVVDVSHEDPEVQFNWYVDGVEVHNAKTKPREEQFNSTFRVVSVLTVVHQDWLNGKEYKCKVSNKGLPAPIEKTISKTKGQPREPQVYTLPPSREEMTKNQVSLTCLVKGFYPSDIAVEWESNGQPENNYKTTPPMLDSDGSFFLYSKLTVDKSRWQQGNVFSCSVMHEALHNHYTQKSLSLSPG
2. D24-IgG2 (Fc fusion) MHVAQPAVVLASSRGIASFVCEYESPGKANEIRVTVLRKAGSQVTEVCAMTYMKEDELTFLDDPSCTGTFSGNQVNLTIQGLRAADTGLYICKVELMYPPPYYLGLGNGTQIYVIDPEPCPDSDERKCCVECPPCPAPPVAGPSVFLFPPKPKDTLMISRTPEVTCVVVDVSHEDPEVQFNWYVDGVEVHNAKTKPREEQFNSTFRVVSVLTVVHQDWLNGKEYKCKVSNKGLPAPIEKTISKTKGQPREPQVYTLPPSREEMTKNQVSLTCLVKGFYPSDIAVEWESNGQPENNYKTTPPMLDSDGSFFLYSKLTVDKSRWQQGNVFSCSVMHEALHNHYTQKSLSLSPG
3. D3-52-IgG2 (Fc fusion) MHVAQPAVVLASSRGIASFVCEYASPGKANEIRVTVLRQADSQVTEVCAMTYMKGNELTFLDDPICTGTFSGNQVNLTIQGLRAMDTGLYICKVELMYPPPYYLGIGNGTQIYVIDPEPCPDSDERKCCVECPPCPAPPVAGPSVFLFPPKPKDTLMISRTPEVTCVVVDVSHEDPEVQFNWYVDGVEVHNAKTKPREEQFNSTFRVVSVLTVVHQDWLNGKEYKCKVSNKGLPAPIEKTISKTKGQPREPQVYTLPPSREEMTKNQVSLTCLVKGFYPSDIAVEWESNGQPENNYKTTPPMLDSDGSFFLYSKLTVDKSRWQQGNVFSCSVMHEALHNHYTQKSLSLSPG

["> 9.88", "> 9.88", "9.28 to 9.58"]

// provenance: patent US20110177071A1
